- assay_system: Integrin alpha-4/beta-1 (Homo sapiens, UniProt P05556+P13612)
- Sequence (P05556 whole entry): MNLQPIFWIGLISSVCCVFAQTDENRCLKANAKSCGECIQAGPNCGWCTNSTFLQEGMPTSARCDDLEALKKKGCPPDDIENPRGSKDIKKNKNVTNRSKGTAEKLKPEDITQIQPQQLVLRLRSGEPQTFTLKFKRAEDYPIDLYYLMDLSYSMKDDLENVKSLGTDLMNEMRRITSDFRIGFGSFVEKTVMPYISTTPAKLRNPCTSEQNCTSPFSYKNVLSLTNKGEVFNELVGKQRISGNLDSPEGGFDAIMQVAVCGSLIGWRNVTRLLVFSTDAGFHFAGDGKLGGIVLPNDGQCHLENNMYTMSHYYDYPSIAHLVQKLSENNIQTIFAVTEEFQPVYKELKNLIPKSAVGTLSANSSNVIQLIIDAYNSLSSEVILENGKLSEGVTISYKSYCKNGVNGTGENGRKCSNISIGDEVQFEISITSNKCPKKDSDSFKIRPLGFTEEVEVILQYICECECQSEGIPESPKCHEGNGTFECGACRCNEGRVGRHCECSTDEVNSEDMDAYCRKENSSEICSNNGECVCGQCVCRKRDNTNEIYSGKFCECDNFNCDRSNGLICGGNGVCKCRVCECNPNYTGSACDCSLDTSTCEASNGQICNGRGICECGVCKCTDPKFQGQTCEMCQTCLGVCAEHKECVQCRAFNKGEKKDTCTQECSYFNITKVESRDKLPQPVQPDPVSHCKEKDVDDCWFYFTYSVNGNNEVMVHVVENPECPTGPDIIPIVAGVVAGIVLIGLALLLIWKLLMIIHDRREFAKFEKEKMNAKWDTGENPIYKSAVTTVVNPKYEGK
- Sequence (P13612 whole entry): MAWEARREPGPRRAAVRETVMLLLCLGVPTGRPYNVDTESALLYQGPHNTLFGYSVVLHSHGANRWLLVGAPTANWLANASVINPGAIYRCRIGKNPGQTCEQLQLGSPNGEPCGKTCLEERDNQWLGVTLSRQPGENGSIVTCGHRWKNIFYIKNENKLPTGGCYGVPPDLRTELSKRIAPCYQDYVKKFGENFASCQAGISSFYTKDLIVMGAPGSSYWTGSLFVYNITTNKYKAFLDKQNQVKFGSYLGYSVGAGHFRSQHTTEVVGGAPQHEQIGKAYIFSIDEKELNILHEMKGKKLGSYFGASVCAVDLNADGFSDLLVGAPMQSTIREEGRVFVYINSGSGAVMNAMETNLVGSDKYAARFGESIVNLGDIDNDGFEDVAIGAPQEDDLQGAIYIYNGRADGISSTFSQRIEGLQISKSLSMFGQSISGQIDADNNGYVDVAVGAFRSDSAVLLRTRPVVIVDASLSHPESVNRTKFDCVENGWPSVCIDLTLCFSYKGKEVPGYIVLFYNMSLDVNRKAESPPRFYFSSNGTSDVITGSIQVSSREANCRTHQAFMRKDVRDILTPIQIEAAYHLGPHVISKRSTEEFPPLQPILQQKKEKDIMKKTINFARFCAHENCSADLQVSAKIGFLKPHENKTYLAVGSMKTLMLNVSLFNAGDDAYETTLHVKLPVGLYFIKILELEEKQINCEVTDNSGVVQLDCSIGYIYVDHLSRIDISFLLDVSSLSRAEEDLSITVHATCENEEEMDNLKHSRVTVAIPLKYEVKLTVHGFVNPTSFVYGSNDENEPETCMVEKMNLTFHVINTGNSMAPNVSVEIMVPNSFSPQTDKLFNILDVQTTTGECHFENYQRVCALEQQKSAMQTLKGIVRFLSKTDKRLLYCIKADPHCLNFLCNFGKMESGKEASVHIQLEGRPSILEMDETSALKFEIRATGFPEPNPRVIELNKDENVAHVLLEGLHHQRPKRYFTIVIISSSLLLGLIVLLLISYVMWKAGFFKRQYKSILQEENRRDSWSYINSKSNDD
- method_summary: Inhibition of alpha4-beta1 (very late) antigen binding with VCAM-1 immunoglobulin
- Type: protein-complex assay
metric_name: IC50 (nM)

// below: answered compounds
> print(dat)
                                   compound  assay.value
1  COc1ccccc1-c1ccc(C[C@H](NC(=O)[C@@]2(c3ccc(Br)cc3)CCCO2)C(=O)O)cc1         3.62
2  COc1ccccc1-c1ccc(C[C@H](NC(=O)[C@@]2(C(=O)N3CCN(C)CC3)CCCO2)C(=O)O)cc1         0.59
3  COc1cccc(OC)c1-c1ccc(C[C@H](NC(=O)[C@@]2(C(C)C)CCCO2)C(=O)O)cc1          0.7

(A) CCCC[C@]1(C(=O)N[C@@H](Cc2ccc(-c3c(OC)cccc3OC)cc2)C(=O)O)CCCO1
(B) COc1cc(OC)cc([C@]2(C(=O)N[C@@H](Cc3ccc(-c4c(OC)cccc4OC)cc3)C(=O)O)CCCO2)c1
(C) COc1cccc(OC)c1-c1ccc(C[C@H](NC(=O)[C@@]2(c3cccc([N+](=O)[O-])c3)CCCO2)C(=O)O)cc1
INPUT: Order the entries by their reported IC50, beginning at the minimum. In your reply, arrange the labels in the requested order.
OUTPUT: C, A, B
(C: 0.23 nM, A: 0.48 nM, B: 1.48 nM)

(P) COc1cccc(OC)c1-c1ccc(C[C@H](NC(=O)[C@@]2(c3nc4ccccc4o3)CCCO2)C(=O)O)cc1
(Q) COc1ccc(CNC2CC(C)O[C@@]2(C)C(=O)N[C@@H](Cc2ccc(-c3c(OC)cccc3OC)cc2)C(=O)O)cc1 (stereo partly drawn)
INPUT: Which value of IC50 is greater, the one for P or the one for Q ? Which one? Tell me its label.
OUTPUT: Q
(Q: 3.4 nM, P: 0.42 nM)

---

- assay_system: Integrin alpha-4/beta-1 (Homo sapiens, UniProt P05556+P13612)
- method_summary: Inhibition of alpha4-beta1 (very late) antigen binding with VCAM-1 immunoglobulin
- Type: protein-complex assay
metric_name: IC50 (nM)

(A) COc1cccc(OC)c1-c1ccc(C[C@H](NC(=O)[C@@]2(CCCCO)CCCO2)C(=O)O)cc1
(B) COc1ccccc1-c1ccc(C[C@H](NC(=O)[C@@]2(c3ccc(F)cc3)CCCO2)C(=O)O)cc1
(C) COc1cccc(OC)c1-c1ccc(C[C@H](NC(=O)[C@]2(C)OC(C)CC2=O)C(=O)O)cc1 (stereo partly drawn)
(D) COc1ccccc1-c1ccc(C[C@H](NC(=O)[C@@]2(c3ccccc3)CCCO2)C(=O)O)cc1
(E) COc1cccc(OC)c1-c1ccc(C[C@H](NC(=O)[C@@]2(CC(C)C)CCCO2)C(=O)O)cc1
INPUT: Take the molecules listed above and rank them by IC50; the top slot goes to the highest value. In your reply, arrange the labels in the requested order.
OUTPUT: A, B, D, E, C
(A: 255 nM, B: 4.3 nM, D: 2.2 nM, E: 1.15 nM, C: 0.7 nM)

---

- assay_system: Integrin alpha-4/beta-7 (Homo sapiens, UniProt P13612+P26010)
- Sequence (P26010 whole entry, one chain of several): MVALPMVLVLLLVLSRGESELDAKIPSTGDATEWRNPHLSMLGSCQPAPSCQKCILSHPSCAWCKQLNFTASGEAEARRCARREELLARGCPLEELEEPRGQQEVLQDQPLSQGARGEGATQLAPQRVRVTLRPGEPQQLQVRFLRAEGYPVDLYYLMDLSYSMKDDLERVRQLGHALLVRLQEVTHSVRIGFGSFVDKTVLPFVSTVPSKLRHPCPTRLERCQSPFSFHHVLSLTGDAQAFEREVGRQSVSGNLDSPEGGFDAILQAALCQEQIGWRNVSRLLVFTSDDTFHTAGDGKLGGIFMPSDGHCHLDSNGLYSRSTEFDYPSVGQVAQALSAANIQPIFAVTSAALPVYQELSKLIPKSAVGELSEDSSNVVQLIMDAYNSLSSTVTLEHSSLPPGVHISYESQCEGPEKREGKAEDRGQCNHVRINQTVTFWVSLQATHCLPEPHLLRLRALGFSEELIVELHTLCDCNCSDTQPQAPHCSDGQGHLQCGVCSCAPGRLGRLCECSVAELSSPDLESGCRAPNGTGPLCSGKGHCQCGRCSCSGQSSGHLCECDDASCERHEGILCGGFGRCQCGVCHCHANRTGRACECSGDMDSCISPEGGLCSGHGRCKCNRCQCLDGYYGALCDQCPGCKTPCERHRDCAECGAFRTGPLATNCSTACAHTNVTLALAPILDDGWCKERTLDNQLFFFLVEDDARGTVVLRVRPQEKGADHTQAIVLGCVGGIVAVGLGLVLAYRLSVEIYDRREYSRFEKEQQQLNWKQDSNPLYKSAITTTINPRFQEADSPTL
- method_summary: Inhibition of alpha4-beta7 antigen with MAdCAM immunoglobulin
- Assay type: protein-complex assay
metric_name: IC50 (nM)

> print(dat)
                            chemical.smiles  metric.name  uom  assay.value
1  COc1cccc(OC)c1-c1ccc(C[C@H](NC(=O)[C@@]2(c3ccc(Cl)c([N+](=O)[O-])c3)CCCO2)C(=O)O)cc1         IC50   nM         45.6

(a) COc1ccccc1-c1ccc(C[C@H](NC(=O)[C@@]2(C(=O)N3CCN(C)CC3)CCCO2)C(=O)O)cc1
(b) COc1ccccc1-c1ccc(C[C@H](NC(=O)[C@@]2(C)CCCO2)C(=O)O)cc1
(c) COc1cccc(OC)c1-c1ccc(C[C@H](NC(=O)[C@@]2(CCCCN(C)C)CCCO2)C(=O)O)cc1
(d) COc1ccccc1-c1ccc(C[C@H](NC(=O)[C@@]2(c3cc(C(F)(F)F)cc(C(F)(F)F)c3)CCCO2)C(=O)O)cc1
INPUT: Arrange the 4 molecules from largest to smallest IC50. In your reply, arrange the labels in the requested order.
OUTPUT: d, c, b, a
(d: 499 nM, c: 226 nM, b: 45.3 nM, a: 23.2 nM)

---

- assay_system: Integrin alpha-4/beta-7 (Homo sapiens, UniProt P13612+P26010)
- method_summary: Inhibition of alpha4-beta7 antigen with MAdCAM immunoglobulin
- Format: protein-complex assay
pIC50: −log10 of the molar value.
metric_name: pIC50

> print(dat)
                                   molecule                              assay.system  assay.value
1  COc1cccc(OC)c1-c1ccc(C[C@H](NC(=O)[C@@]2(CCCCO)CCCO2)C(=O)O)cc1  Integrin alpha-4/beta-7 (Homo sapiens, UniProt P13612+P26010)         6.61
2  COc1cccc(OC)c1-c1ccc(C[C@H](NC(=O)[C@@]2(c3nc4ccccc4o3)CCCO2)C(=O)O)cc1  Integrin alpha-4/beta-7 (Homo sapiens, UniProt P13612+P26010)         6.42
3  COc1ccccc1-c1ccc(C[C@H](NC(=O)[C@@]2(c3ccc(Br)cc3)CCCO2)C(=O)O)cc1  Integrin alpha-4/beta-7 (Homo sapiens, UniProt P13612+P26010)         6.63
4  COCCC[C@]1(C(=O)N[C@@H](Cc2ccc(-c3c(OC)cccc3OC)cc2)C(=O)O)CCCO1  Integrin alpha-4/beta-7 (Homo sapiens, UniProt P13612+P26010)         8.11
5  COc1cccc(OC)c1-c1ccc(C[C@H](NC(=O)[C@@]2(c3ncc(C)s3)CCCO2)C(=O)O)cc1  Integrin alpha-4/beta-7 (Homo sapiens, UniProt P13612+P26010)         7.84
6  COc1ccc(CNC2CC(C)O[C@@]2(C)C(=O)N[C@@H](Cc2ccc(-c3c(OC)cccc3OC)cc2)C(=O)O)cc1 (stereo partly drawn)  Integrin alpha-4/beta-7 (Homo sapiens, UniProt P13612+P26010)         6.13

(a) COc1ccccc1-c1ccc(C[C@H](NC(=O)[C@@]2(c3ccccc3)CCCO2)C(=O)O)cc1
(b) COc1cccc(OC)c1-c1ccc(C[C@H](NC(=O)[C@@]2(C)CCCO2)C(=O)O)cc1
INPUT: Which value of pIC50 is greater, the one for a or the one for b ? Which one? Tell me its label.
OUTPUT: b
(b: 8.15, a: 7.25)

---

- assay_system: Integrin alpha-4/beta-1 (Homo sapiens, UniProt P05556+P13612)
- method_summary: Inhibition of alpha4-beta1 (very late) antigen binding with VCAM-1 immunoglobulin plus 5% human plasma
- Assay type: cell-free
pIC50: −log10 of the molar value.
metric_name: pIC50

// below: answered molecules
> print(dat)
                                   molecule  metric.name  assay.value
1  COc1ccccc1-c1ccc(C[C@H](NC(=O)[C@@]2(C(=O)N3CCCC3)CCCO2)C(=O)O)cc1        pIC50         8.35
2  COc1cccc(OC)c1-c1ccc(C[C@H](NC(=O)[C@@]2(c3cccc(N)c3)CCCO2)C(=O)O)cc1        pIC50         8.25
3  COCCC[C@]1(C(=O)N[C@@H](Cc2ccc(-c3c(OC)cccc3OC)cc2)C(=O)O)CCCO1        pIC50         9.21
4  COc1ccccc1-c1ccc(C[C@H](NC(=O)[C@@]2(c3ccc(Br)cc3)CCCO2)C(=O)O)cc1        pIC50         7.28
5  COCC[C@]1(C(=O)N[C@@H](Cc2ccc(-c3c(OC)cccc3OC)cc2)C(=O)O)CCCO1        pIC50         8.70

(1) COc1cccc(OC)c1-c1ccc(C[C@H](NC(=O)[C@@]2(c3ccc(Cl)cc3)CCCO2)C(=O)O)cc1
(2) COc1cccc(OC)c1-c1ccc(C[C@H](NC(=O)[C@@]2(c3cccc([N+](=O)[O-])c3)CCCO2)C(=O)O)cc1
(3) COc1ccc(CNC2CC(C)O[C@@]2(C)C(=O)N[C@@H](Cc2ccc(-c3c(OC)cccc3OC)cc2)C(=O)O)cc1 (stereo partly drawn)
(4) COc1cccc(OC)c1-c1ccc(C[C@H](NC(=O)[C@@]2(c3ccc(Cl)c([N+](=O)[O-])c3)CCCO2)C(=O)O)cc1
INPUT: Arrange the 4 molecules from largest to smallest pIC50. In your reply, arrange the labels in the requested order.
OUTPUT: 2, 4, 1, 3
(2: 9.02, 4: 8.62, 1: 8.32, 3: 7.83)
